testedTarget: Tyrosine-protein kinase Lck (Homo sapiens, UniProt P06239)
Sequence (P06239 whole entry): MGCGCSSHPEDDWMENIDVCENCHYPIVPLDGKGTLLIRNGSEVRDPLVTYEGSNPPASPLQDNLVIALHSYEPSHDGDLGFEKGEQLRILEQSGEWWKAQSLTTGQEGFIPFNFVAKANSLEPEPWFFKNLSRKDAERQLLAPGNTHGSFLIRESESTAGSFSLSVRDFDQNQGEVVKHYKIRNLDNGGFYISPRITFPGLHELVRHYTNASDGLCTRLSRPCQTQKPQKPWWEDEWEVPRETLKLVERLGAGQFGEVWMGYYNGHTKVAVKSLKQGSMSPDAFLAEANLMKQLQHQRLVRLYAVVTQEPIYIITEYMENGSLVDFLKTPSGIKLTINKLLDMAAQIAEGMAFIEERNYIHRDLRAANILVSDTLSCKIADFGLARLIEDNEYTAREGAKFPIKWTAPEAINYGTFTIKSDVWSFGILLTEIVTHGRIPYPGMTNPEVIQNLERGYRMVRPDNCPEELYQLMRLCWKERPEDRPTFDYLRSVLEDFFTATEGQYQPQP
measurementProtocol: DRUGMATRIX: Protein Tyrosine Kinase, LCK enzyme inhibition (substrate: Poly(Glu:Tyr))
Type: cell-based, Insect cells
statedConditions: insect cells; Not Active = under 50% inhibition at 10 µM
testReadout: IC50

Consider the worked cases shown below.
compound: C#C[C@]1(O)CC[C@H]2[C@@H]3CCC4=CC(=O)CC[C@]4(C)[C@H]3CC[C@@]21C
IC50: Not Active
//
compound: C[C@]12C=CC(=O)C=C1CC[C@@H]1[C@@H]2C(=O)C[C@@]2(C)[C@H]1CC[C@]2(O)C(=O)CO
IC50: Not Active
//
compound: CN1[C@@H]2CC[C@H]1C[C@@H](OC(c1ccccc1)c1ccccc1)C2
IC50: Not Active
//
compound: CC[C@H]1[C@@H]2C[C@H]3[C@@H]4N(C)c5ccccc5[C@]45C[C@@H]([C@@H]2[C@H]5O)N3[C@@H]1O
IC50: Not Active
//
compound: NC(=O)c1cccnc1 [NIACINAMIDE]
IC50: Not Active

Given the compound `CN1C[C@@H]2C[C@H]1CN2c1cc2c(cc1F)c(=O)c(C(=O)O)cn2C1CC1` , what is its reported IC50?
Not Active

Given the compound `C[C@]12C=CC(=O)C=C1CC[C@H]1[C@@H]3C[C@@H](O)[C@](O)(C(=O)CO)[C@@]3(C)C[C@H](O)[C@@]12F` , what is its reported IC50?
Not Active

Given the compound `CCN(C(C)=O)c1cccc(-c2ccnc3c(C#N)cnn23)c1` , what is its reported IC50?
Not Active

Given the compound C[S+](C)[O-] [DIMETHYL SULFOXIDE] , what is its reported IC50?
Not Active

Given the compound `Cc1ccc(C(=O)c2ccc(CC(=O)O)n2C)cc1` , what is its reported IC50?
Not Active

Given the compound Cc1cccc(C)c1NC(=O)C1CCCCN1C (configuration not stated) [MEPIVACAINE] , what is its reported IC50?
Not Active

Given the compound CC(=O)OCC(=O)[C@@]12OC(C)(C)O[C@@H]1C[C@H]1[C@@H]3C[C@H](F)C4=CC(=O)C=C[C@]4(C)[C@@]3(F)[C@@H](O)C[C@@]12C [FLUOCINONIDE] , what is its reported IC50?
Not Active

Given the compound `C[C@]12CC[C@H]3[C@@H](CCC4=CC(=O)CC[C@@H]43)[C@@H]1CC[C@@H]2O` , what is its reported IC50?
Not Active

Given the compound CCCNC(=O)NS(=O)(=O)c1ccc(Cl)cc1 [CHLORPROPAMIDE] , what is its reported IC50?
Not Active

Given the compound CCC1=C(C)CN(C(=O)NCCc2ccc(S(=O)(=O)NC(=O)N[C@H]3CC[C@H](C)CC3)cc2)C1=O [GLIMEPIRIDE] , what is its reported IC50?
Not Active

Given the compound `CC(=O)Oc1ccccc1C(=O)O` , what is its reported IC50?
Not Active

Given the compound CC(C)(C)NCC(O)COc1cccc2c1CC(O)C(O)C2 (configuration not stated) , what is its reported IC50?
Not Active

====

measurementProtocol: DRUGMATRIX: Calcium Channel Type L, Dihydropyridine radioligand binding (ligand: [3H] Nitrendipine)
Type: cell membranes, Rattus norvegicus, Wistar, Cerebral cortex, Membrane
statedConditions: Not Active = under 50% inhibition at 10 µM
testReadout: Ki

substance: COLISTIN
testReadout: Ki
resultValue: Not Active
--
substance: TRANSPLATIN
testReadout: Ki
resultValue: Not Active
--
substance: ZIRCONIUM(IV) CHLORIDE
testReadout: Ki
resultValue: Not Active
--
substance: COBALTOUS CHLORIDE
testReadout: Ki
resultValue: Not Active
